- TARGET_OF_ASSAY: LC3A (human, UniProt Q9H492 1-121)
- RUN_DESCRIPTION: ITC
READOUT_NAME: Kd (nM)

INSERT INTO results (binder, numeric_result) VALUES
  ('PEDDWTEFSSEEIREARQAAASHAPS [AnkG LIR (AnkG WT peptide, rat 480 kD AnkG residues 1985-2010)]', 546);
